So I've got a bunch of binders here, and I need their IC50 values.
biological target: T1, human α4β1 integrin on cells (human, UniProt P13612 34-1032; P05556 21-798); assay: Jurkat cell adhesion to VCAM-1
T1 construct: whole, on cells; also called α4β1 cell; Jurkat cells
Bridge positions count the residues as written; N and C are the ends. Square brackets hold non-standard residues; d marks the D form. NMeR = CN[C@@H](CCCNC(=N)N)C(=O)O; Pen = CC(C)(S)[C@H](N)C(=O)O

Requested read-out: IC50. Entry: Ac-C[NMeR]SDTL[Pen][dK]-NH2 (disulfide 1-7; SMILES CC(=O)N[C@H]1CSSC(C)(C)[C@@H](C(=O)N[C@H](CCCCN)C(N)=O)NC(=O)[C@H](CC(C)C)NC(=O)[C@H]([C@@H](C)O)NC(=O)[C@H](CC(=O)O)NC(=O)[C@H](CO)NC(=O)[C@H](CCCNC(=N)N)N(C)C1=O) [SEQ ID NO: 202]
> 100 µM

Can you share its IC50? I mean this binder: Ac-C[NMeR]SDTLCGE-NH2 (disulfide 1-7 (inferred), also called peptide 198) [SEQ ID NO: 198]
> 100 µM

These entries and their values trace back to patent US20220162261A1.
